# relative viability per record follows
- Test system: A-427
- assayInfo: relative viability (nuclei count vs DMSO), 5 days (fraction); higher = more cells survive
- assaySetup: first compound 20 µM
quantityKind: relative viability

INSERT INTO assay_data (molecule, quantitykind, valueobserved) VALUES
  ('COCC1(CO)C(=O)C2CCN1CC2 (stereo unspecified) [PRIMA-1MET] + COc1cccc2cc(-c3nc([C@H]4CC[C@H](C(=O)O)CC4)n4ncnc(N)c34)[nH]c12 [OSI-027] (partner 0.5 µM)', 'relative viability', 0.369),
  ('COCC1(CO)C(=O)C2CCN1CC2 (stereo unspecified) [PRIMA-1MET] + CC1(C)CCC(c2ccc(Cl)cc2)=C(CN2CCN(c3ccc(C(=O)NS(=O)(=O)c4ccc(N[C@H](CCN5CCOCC5)CSc5ccccc5)c(S(=O)(=O)C(F)(F)F)c4)cc3)CC2)C1 [Navitoclax] (partner 0.5 µM)', 'relative viability', 1),
  ('COCC1(CO)C(=O)C2CCN1CC2 (stereo unspecified) [PRIMA-1MET] + C[C@]1(O)C[C@@H](c2nc(-c3ccc4ccc(-c5ccccc5)nc4c3)c3c(N)nccn32)C1 [Linsitinib] (partner 1 µM)', 'relative viability', 1.08),
  ('COCC1(CO)C(=O)C2CCN1CC2 (stereo unspecified) [PRIMA-1MET] + NC(=O)Nc1cc(-c2cccc(F)c2)sc1C(=O)N[C@H]1CCCNC1 [AZD7762] (partner 0.2 µM)', 'relative viability', 0.557),
  ('COCC1(CO)C(=O)C2CCN1CC2 (stereo unspecified) [PRIMA-1MET] + CS(=O)(=O)N1CCN(Cc2cc3nc(-c4cccc5[nH]ncc45)nc(N4CCOCC4)c3s2)CC1 [Pictilisib] (partner 1 µM)', 'relative viability', 0.622),
  ('COCC1(CO)C(=O)C2CCN1CC2 (stereo unspecified) [PRIMA-1MET] + Cc1nc(Nc2ncc(C(=O)Nc3c(C)cccc3Cl)s2)cc(N2CCN(CCO)CC2)n1 [Dasatinib] (partner 0.075 µM)', 'relative viability', 0.15);

====

# relative viability per record follows
- Tested on: NCI-H2009
- assayInfo: relative viability (nuclei count vs DMSO), 5 days (fraction); higher = more cells survive
- assaySetup: first compound 1 µM
quantityKind: relative viability

INSERT INTO measurements (compound, quantitykind, valueobserved) VALUES
  ('O=c1cc(N2CCOCC2)oc2c(-c3cccc4c3sc3ccccc34)cccc12 + C[C@]1(O)C[C@@H](c2nc(-c3ccc4ccc(-c5ccccc5)nc4c3)c3c(N)nccn32)C1 [Linsitinib] (partner 1 µM)', 'relative viability', 1.05),
  ('O=c1cc(N2CCOCC2)oc2c(-c3cccc4c3sc3ccccc34)cccc12 + Cc1cc(Nc2cc(N3CCN(C)CC3)nc(Sc3ccc(NC(=O)C4CC4)cc3)n2)n[nH]1 [Tozasertib] (partner 0.1 µM)', 'relative viability', 0.708),
  ('O=c1cc(N2CCOCC2)oc2c(-c3cccc4c3sc3ccccc34)cccc12 + COc1cccc2cc(-c3nc([C@H]4CC[C@H](C(=O)O)CC4)n4ncnc(N)c34)[nH]c12 [OSI-027] (partner 0.5 µM)', 'relative viability', 0.654),
  ('O=c1cc(N2CCOCC2)oc2c(-c3cccc4c3sc3ccccc34)cccc12 + CCNC(=O)c1noc(-c2cc(C(C)C)c(O)cc2O)c1-c1ccc(CN2CCOCC2)cc1 [Luminespib] (partner 0.01 µM)', 'relative viability', 0.97),
  ('CCN(CC)CCCCNc1ncc2cc(-c3cc(OC)cc(OC)c3)c(NC(=O)NC(C)(C)C)nc2n1 + Cc1nc(Nc2ncc(C(=O)Nc3c(C)cccc3Cl)s2)cc(N2CCN(CCO)CC2)n1 [Dasatinib] (partner 0.075 µM)', 'relative viability', 0.246),
  ('CCN(CC)CCCCNc1ncc2cc(-c3cc(OC)cc(OC)c3)c(NC(=O)NC(C)(C)C)nc2n1 + O=C(c1cc(Cc2n[nH]c(=O)c3ccccc23)ccc1F)N1CCN(C(=O)C2CC2)CC1 [Olaparib] (partner 8 µM)', 'relative viability', 0.7),
  ('CCN(CC)CCCCNc1ncc2cc(-c3cc(OC)cc(OC)c3)c(NC(=O)NC(C)(C)C)nc2n1 + CC(=O)Nc1cccc(-n2c(=O)n(C3CC3)c(=O)c3c(Nc4ccc(I)cc4F)n(C)c(=O)c(C)c32)c1 [Trametinib] (partner 0.02 µM)', 'relative viability', 0.192),
  ('O=c1cc(N2CCOCC2)oc2c(-c3cccc4c3sc3ccccc34)cccc12 + C[C@@H](Oc1cc(-c2cnn(C3CCNCC3)c2)cnc1N)c1c(Cl)ccc(F)c1Cl [Crizotinib] (partner 1 µM)', 'relative viability', 0.935),
  ('O=c1cc(N2CCOCC2)oc2c(-c3cccc4c3sc3ccccc34)cccc12 + CC(=O)c1c(C)c2cnc(Nc3ccc(N4CCNCC4)cn3)nc2n(C2CCCC2)c1=O [Palbociclib] (partner 0.5 µM)', 'relative viability', 0.158);
